Hello, the source for this data is patent US9993424B2, in case you need it.

ASSAY_NOTES: Solubility in silicone oil at 25° C.
TEST_PARAMETERS: oil or lipid
solubility values for the compounds below.

| COMPOUND | solubility |
| --- | --- |
| C[C@]12CC[C@H]3[C@@H](CCC4=CC(=O)CC[C@@]43C)[C@@H]1CC[C@@H]2O | 140 µg/mL |
| Nc1nc2c(ncn2COCCO)c(=O)[nH]1 | < 80 µg/mL |
| CC(C)N1CCN(c2ccc(OCC3COC(Cn4cncn4)(c4ccc(Cl)cc4Cl)O3)cc2)CC1 (stereo not shown) | 200 µg/mL |
| Cc1ncc([N+](=O)[O-])n1CCO | 6 µg/mL |
